Test system: Escherichia coli TOP10;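 note: peptides expressed intracellularly from a pBAD plasmid library in pooled LB shake-flask culture, induced with 0.3% L-arabinose, DNA abundance read by NGS, three biological replicates, DESeq2 with apeglm shrinkage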
Test: shrunken log2 fold change of peptide-encoding DNA abundance (4.5 h post-induction vs induction); higher = less antimicrobial activity (less host growth inhibition)
Conditions: time post-induction: 4.5 h; library: site-saturation at positions 5, 18, 19, 20
# if value of shrunken log2 fold change reaches 0.08, tag yes; if it stays below, tag no

For orientation, consider the following solved cases.
seq_text=RRIRMRPPRLPRPRPRPAPIPRP label=yes
seq_text=RRIRMRPPRLPRPRPRPTRIPRP label=yes
seq_text=RRIRSRPPRLPRPRPRPYQFPRP label=no
seq_text=RRIRYRPPRLPRPRPRPPYAPRP label=no
seq_text=RRIRARPPRLPRPRPRPKVPPRP label=yes

In: Decide: shrunken log2 fold change of RRIRTRPPRLPRPRPRPPPAPRP >= 0.08?
Out: yes

In: Decide: shrunken log2 fold change of RRIRERPPRLPRPRPRPNQKPRP >= 0.08?
Out: no

In: Decide: shrunken log2 fold change of RRIRARPPRLPRPRPRPTNGPRP >= 0.08?
Out: no

In: Decide: shrunken log2 fold change of RRIRKRPPRLPRPRPRPCFFPRP >= 0.08?
Out: yes

In: Decide: shrunken log2 fold change of RRIRCRPPRLPRPRPRPAIYPRP >= 0.08?
Out: no
